Tested on: SF-295 CNS
METHOD_DESCRIPTION: NCI-60 one-dose screen, 48 h (100 = growth as untreated, 0 = no growth, -100 = all killed)
SETUP_CONDITIONS: 10 µM unless noted
Compounds without any hit were thinned out: in the full panel of roughly 83,000, 20% have a hit.
Below is a list of entries, each paired with its recorded growth value.
MEASURED_ATTRIBUTE: growth (%)

{"columns": ["COMPOUND", "ASSAY_SYSTEM", "NUMBER"],
 "data": [
  ["C=C(C)COc1ccc(C(C)(C)C)cc1", "SF-295 CNS", 101],
  ["O=C(O)Cc1cccc2ccccc12", "SF-295 CNS", 110],
  ["O=C(O)CC1=CCCCC1", "SF-295 CNS", 95.2],
  ["OCC(O)COc1ccc(Cl)cc1Cl (centres undefined)", "SF-295 CNS", 97.5],
  ["NS(=O)(=O)c1cc(=O)[nH]c(=O)[nH]1", "SF-295 CNS", 109],
  ["O=C(O)Cc1ccc(Cl)cc1", "SF-295 CNS", 97.5],
  ["CC(C)C1CCC(C)C(O)C1 (centres undefined)", "SF-295 CNS", 100],
  ["Cc1ccc(C)c(CN(C)C)c1O", "SF-295 CNS", 97.8],
  ["CCCCNC(=O)c1ccc(OCC)cc1", "SF-295 CNS", 106],
  ["COc1cc(C(=O)N2CCN(c3ccccc3)CC2)c2ccccc2n1", "SF-295 CNS", 7.61],
  ["CC(=O)OC/C(C)=C\\CC(C)COC(C)=O (centres undefined)", "SF-295 CNS", 94.6],
  ["CCOC(=O)c1ccc(C(C)(C)C)cc1", "SF-295 CNS", 108],
  ["CCCCNc1ccc(-c2ccc(NCCCC)cc2)cc1", "SF-295 CNS", 57.4],
  ["COc1ccc(/C=C\\C(=O)/C=C/c2ccc(OC)cc2)cc1", "SF-295 CNS", 101]
]}

###

Tested on: UACC-257 melanoma
METHOD_DESCRIPTION: NCI-60 one-dose screen, 48 h
SETUP_CONDITIONS: 10 µM unless noted
About 83,000 compounds went through this panel and 20% of them were active in at least one assay; those are over-represented in the sample as a whole. Activity calls are given as the source filed them. Rule for the calls: active = growth percent below 10; inactive = the rest.
Labels: active, inactive

{"columns": ["COMPOUND", "ASSIGNED_CLASS"],
 "data": [
  ["CC(C)Sc1ncnc2nc[nH]c12", "inactive"],
  ["Cc1cc(CO)c(O)c(CO)c1", "inactive"],
  ["CC1CC(C)S(=O)(=O)C1 (centres undefined)", "inactive"],
  ["CC(=O)N(CCCCCCN(C(C)=O)C(C)=O)C(C)=O", "inactive"],
  ["CCN(CC)c1ccc2nc3ccc(N=Nc4ccc(N(C)C)cc4)cc3[n+](-c3ccccc3)c2c1", "active"],
  ["O=Cc1c(O)c2ccccc2[nH]c1=O", "inactive"],
  ["OCC1OC(n2ccc3c2ncn2ncnc32)C(O)C1O (centres undefined)", "inactive"],
  ["CCCC1OC(c2ccco2)OCC1CC (centres undefined)", "inactive"],
  ["C=CC1=NC(C)(C)CC(C)O1 (centres undefined)", "inactive"],
  ["CC(C)c1ncc([N+](=O)[O-])n1C", "inactive"],
  ["Nc1ncnc(Nc2ccc(C(F)(F)F)cc2)n1", "inactive"],
  ["CC(=O)OCC1CCC(COC(C)=O)CC1 (centres undefined)", "inactive"],
  ["O=C(O)C1CSC(c2ccccc2)N1 (centres undefined)", "inactive"],
  ["CCOC(=O)C(=O)CC(=O)c1ccccc1", "inactive"]
]}
